Assay: chemical genetic growth profiling, strain panel (AID 1159580);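 also: tested at 20 µM; growth read once vehicle control cultures reached saturation at 30 °C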
Conditions: S. cerevisiae deletion strains, growth OD, locus YIL073C, strain SPO22, stronger effect = lower value
Among all 5,500 compounds or so, about 2,000 (36%) were called active. Not shown: some 18% with an inconclusive outcome. The list shows a part of the results.
So basically: is normalized growth under 1? Then TRUE. Not under? Then FALSE.

# compound, category
data = [
    ("C[N+](C)(C)CCOC(N)=O", "TRUE"),
    ("COc1cc2c(cc1OC)[C@@H]1C(=O)c3ccc(O)c(CC=C(C)C)c3O[C@@H]1CO2", "TRUE"),
    ("COc1cc2c(cc1OC)[C@@H]1C(=O)c3ccc(OC)c(CC=C(C)C)c3O[C@@H]1CO2", "FALSE"),
    ("COc1cc2c(cc1OC)C1C(=O)c3c(cc4c(c3O)C=CC(C)(C)O4)OC1CO2 (stereo unspecified)", "FALSE"),
    ("COc1cc2c(cc1OC)[C@@H]1C(=O)c3ccc4c(c3O[C@@H]1CO2)C=CC(C)(C)O4", "TRUE"),
    ("CN(C)CC/C=C1\\c2ccccc2Sc2ccc(Cl)cc21", "TRUE"),
    ("CCC(C)C(OC(C)=O)C(=O)OC1C(O)C2C3(C)C=CC(=O)C(C)(C)C3CC(OC(=O)C(O)C(C)C)C2(C)C23OC2CC(c2ccoc2)C13C (stereo unspecified)", "TRUE"),
    ("CCC(=O)O[C@H]1[C@H](O[C@@H]2[C@@H](C)[C@H](O[C@H]3C[C@@](C)(OC)[C@@H](O)[C@H](C)O3)[C@@H](C)C(=O)O[C@H](CC)[C@@](C)(O)[C@H](O)[C@@H](C)C(=O)[C@H](C)C[C@@]2(C)O)O[C@H](C)C[C@@H]1N(C)C", "FALSE"),
    ("CCN(CCO)CCCC(C)Nc1ccnc2cc(Cl)ccc12 (stereo unspecified)", "FALSE"),
    ("COc1ccc2c(c1)O[C@@H]1COc3cc(OC)c(OC)cc3[C@@H]1C2=O", "TRUE"),
]

Shifting focus to the compound that follows.
Prompt: In the record for C=C1C([C@]2(C)C(CC(=O)OC)[C@@](C)(COC(C)=O)OC(=O)C[C@@H]2OC(C)=O)[C@@H](OC=O)[C@H](OC(=O)C(O)C(C)CC)[C@@]2(C)[C@H](c3ccoc3)CC(=O)C12O (stereo partly specified) , is normalized growth less than 1?
Completion: FALSE
